assay protocol: folding enthalpy; higher = less favourable; fluorescence melt of hairpins on a sequencing array, two-state fit
protocol conditions: sodium 0.088 M
Could you please report measured folding enthalpy for the items listed next?
Numbers only here, please. The scale is kcal/mol.

Req: Supply folding enthalpy value. Item: GCGCATCGAAAGATACGC (((.(((....))).)))
Resp: -38.6

Req: Supply folding enthalpy value. Item: GCGCCTACGAAAGTACGC (((..(((....))))))
Resp: -27.8

Req: Supply folding enthalpy value. Item: GCCGGGCGAAAGCCCTGC ((.((((....)))).))
Resp: -14.9

Req: Supply folding enthalpy value. Item: GAATCGGGAAACCGACTC ((.((((....)))).))
Resp: -20.4

Req: Supply folding enthalpy value. Item: GGGGGTTCGAAAGAACCC (((..(((....))))))
Resp: -7.33

Req: Supply folding enthalpy value. Item: CGATCGGAAACGATTTCG ((((((....)))..)))
Resp: -20.4

Req: Supply folding enthalpy value. Item: GCATACGAAAGTATCTGC ((((((....)))..)))
Resp: -15.5

Req: Supply folding enthalpy value. Item: GCACCGCGAAAGCGGAGC ((.((((....)))).))
Resp: -16.4

Req: Supply folding enthalpy value. Item: GCGTCGCGAAAGCGTTGC ((..(((....)))..))
Resp: -17.9

Req: Supply folding enthalpy value. Item: GGATCCGAAAGGAAATCC ((((((....)))..)))
Resp: -25.9

Req: Supply folding enthalpy value. Item: GATCCGAGCACGGATC ((((((....))))))
Resp: -38.2

Req: Supply folding enthalpy value. Item: GCGCTGCGAAAGCTCCGC (((..((....))..)))
Resp: -20.5

Req: Supply folding enthalpy value. Item: GCTGTTCGAAAGAAAAGC (((.(((....))).)))
Resp: -28.6

Req: Supply folding enthalpy value. Item: GATCACGGTCGTGATC ((((((....))))))
Resp: -39.6

Req: Supply folding enthalpy value. Item: GGCATCCCGAAAGGGGCC (((..(((....))))))
Resp: -18.9

Req: Supply folding enthalpy value. Item: GATCCCCAAGGGATC ((((((...))))))
Resp: -30.9

Req: Supply folding enthalpy value. Item: GCGATTTATCGC ((((....))))
Resp: -28.4

Req: Supply folding enthalpy value. Item: GCGTAGCGAAAGCTCGC (((.(((....))))))
Resp: -16.4

Req: Supply folding enthalpy value. Item: GACGGGACGAAAGTCGTC (((..(((....))))))
Resp: -17.1

Req: Supply folding enthalpy value. Item: GCCTTGGGAAACCAAGGC (((((((....)))))))
Resp: -44.1

Req: Supply folding enthalpy value. Item: GATCCATACATGGATC ((((((....))))))
Resp: -50.8

Req: Supply folding enthalpy value. Item: GATCAAGTCGTTGATC ((((((....))))))
Resp: -39.2

Req: Supply folding enthalpy value. Item: GAAGGAGGAAACTCCTTC (((((((....)))))))
Resp: -33.6

Req: Supply folding enthalpy value. Item: GATCCTCATAAGGATC ((((((....))))))
Resp: -34.4

Req: Supply folding enthalpy value. Item: GCGAGGCGAAAGCCATGC ((..(((....)))..))
Resp: -17.6
